Reported T/C values for a set of compounds
System: CD2F1 mice, P1798 lymphosarcoma sc, tumor weight T/C
Test: NCI In Vivo Anticancer Drug Screen. Data for tumor model P1798 Lymphosarcoma (subcutaneous) in CD2F1 (CDF1) mice
Conditions: endpoint: mean tumor weight; dose: 25.0 mg/kg/injection; schedule: Q01DX010 (ip); vehicle: saline; higher = larger tumour
Method: The antitumor activity of compounds was measured in mice bearing transplantable tumors. Survival or tumor size were measured and the results are expressed as the measurement made in the treated group (T) divided by the measurement made in the vehicle treated control group (C). The tumor model used in this assay is P1798 Lymphosarcoma (subcutaneous) in CD2F1 (CDF1) mice
experimentalEndpoint: T/C

compoundStructureString: CCCNc1ncnc2[nH]ncc12
experimentalEndpoint: T/C
measurement: 25 % of control

compoundStructureString: O=C(C(=O)N1CC1)c1c[nH]c2ccccc12
experimentalEndpoint: T/C
measurement: 108 % of control

compoundStructureString: CCc1c(CC(=O)O)c2cc(C)ccc2n1Cc1ccc(Cl)cc1
experimentalEndpoint: T/C
measurement: 87 % of control

compoundStructureString: CC(=O)NCCSC(=O)C(=O)SCCNC(C)=O
experimentalEndpoint: T/C
measurement: 111 % of control
